Molecular target: Fuc(a1-2)Gal(b1-4)GlcNAc(b1-2)Man
Experiment: glycan array binding signal (z-score within array); higher = stronger binding
Conditions: glycan notation: IUPAC condensed, linker removed
The full list was thinned out, with the strongest signals kept by preference.
Classification field: enter Y for glycan array binding signal (z-score) values not below 0.007, N for values below it.

[ask] Kindly determine if glycan array binding signal (z-score) recorded for NKR-PIC (Mus musculus) (protein) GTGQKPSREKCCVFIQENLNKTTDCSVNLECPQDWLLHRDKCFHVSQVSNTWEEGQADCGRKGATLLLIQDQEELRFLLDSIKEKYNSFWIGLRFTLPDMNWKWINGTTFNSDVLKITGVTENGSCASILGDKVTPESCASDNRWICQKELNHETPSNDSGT is above or exactly 0.007.
[reply] N

[ask] Kindly determine if glycan array binding signal (z-score) recorded for CALR truncated at D342 (Homo sapiens) (protein) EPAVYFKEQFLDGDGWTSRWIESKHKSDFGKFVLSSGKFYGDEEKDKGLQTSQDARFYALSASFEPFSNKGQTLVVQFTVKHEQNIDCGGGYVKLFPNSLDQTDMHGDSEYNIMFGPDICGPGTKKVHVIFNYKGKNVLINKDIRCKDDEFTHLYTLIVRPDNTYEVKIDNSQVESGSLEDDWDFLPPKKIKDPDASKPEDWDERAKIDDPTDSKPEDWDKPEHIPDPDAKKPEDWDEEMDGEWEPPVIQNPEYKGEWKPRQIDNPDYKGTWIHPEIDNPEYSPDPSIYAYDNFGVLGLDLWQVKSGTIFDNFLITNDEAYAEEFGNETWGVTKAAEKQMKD is above or exactly 0.007.
[reply] N

[ask] Kindly determine if glycan array binding signal (z-score) recorded for Mermaid2 (Stilbonema majum) (protein) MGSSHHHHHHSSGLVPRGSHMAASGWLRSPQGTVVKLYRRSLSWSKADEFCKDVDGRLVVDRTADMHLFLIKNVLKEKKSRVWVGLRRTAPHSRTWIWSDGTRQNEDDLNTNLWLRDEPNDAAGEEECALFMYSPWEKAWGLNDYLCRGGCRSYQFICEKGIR is above or exactly 0.007.
[reply] Y

[ask] Kindly determine if glycan array binding signal (z-score) recorded for SUN4 (Saccharomyces cerevisiae), P53616 (protein) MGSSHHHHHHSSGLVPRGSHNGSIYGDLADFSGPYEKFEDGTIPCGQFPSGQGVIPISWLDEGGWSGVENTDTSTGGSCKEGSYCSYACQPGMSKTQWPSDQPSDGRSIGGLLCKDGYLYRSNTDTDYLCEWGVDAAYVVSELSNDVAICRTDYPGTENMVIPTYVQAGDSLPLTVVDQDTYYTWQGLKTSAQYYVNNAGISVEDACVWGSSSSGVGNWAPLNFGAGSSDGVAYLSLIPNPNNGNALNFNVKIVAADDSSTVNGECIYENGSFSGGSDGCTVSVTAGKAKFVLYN is above or exactly 0.007.
[reply] Y
